Quick reference for PBM binding z-score among some sequences
Test system: RARb:RXRa (NR concentration 270 nM, RXRa partner concentration 90 nM)
PROTOCOL_DESCRIPTION: PBM binding z-score (relative to random genomic background probes); higher = stronger binding; sequences stand for … in GC…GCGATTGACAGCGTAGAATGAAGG
Just the number.

Consider the sequence shown here: ATCGAAAGGTGGAGGTGAGTATAGAGAAAGGGAA What is its recorded PBM binding z-score?
1.28

Consider the sequence shown here: CGTCAAAGTTCAACTAAGGTATCGTAAAGCACGC What is its recorded PBM binding z-score?
5.24

Consider the sequence shown here: ATATGTAGGTTACTTCCGGGTCATTCAGGCTATG What is its recorded PBM binding z-score?
2.36

Consider the sequence shown here: GCTCGGAGGACAAGGTCAGCGCTTTGTCCGTAGA What is its recorded PBM binding z-score?
3.88

Consider the sequence shown here: ACTAGTTGGTCAGCTGAGGTCACAAACAATTCGG What is its recorded PBM binding z-score?
3.53
